Data provenance is patent US6518243B1.

# System: E. faecalis (CL 4877)
# Assay details: Zone of inhibition screen, 96 well agar array format
# Format: cell-based
# Design: scale not given here
# Condition summary: zone of inhibition relative to 1 mg/ml stock solution of p-chlorobiphenylvancomycin
As shown below, each of these molecules has a reported zone score, E. faecalis CL 4877 value.
Assay endpoint: zone score, E. faecalis CL 4877

Molecule	Assay endpoint	Recorded result
CC(=O)NCSCC(N)C(=O)NC1C(=O)NC(CC(N)=O)C(=O)NC2C(=O)NC3C(=O)NC(C(=O)NC(C(=O)O)c4cc(O)cc(O)c4-c4cc3ccc4O)C(O)c3ccc(c(Cl)c3)Oc3cc2cc(c3OC2OC(CO)C(O)C(O)C2OC2CC(C)(NCc3ccc(-c4ccc(Cl)cc4)cc3)C(O)C(C)O2)Oc2ccc(cc2Cl)C1O (stereo not drawn) [Compound 49]	zone score, E. faecalis CL 4877	2
CC1OC(OC2C(Oc3c4cc5cc3Oc3ccc(cc3Cl)C(O)C3NC(=O)C(NC(=O)C5NC(=O)C(CC(N)=O)NC(=O)C(NC(=O)C(N)CCCCNC(=O)CCCCC5SCC6NC(=O)NC65)C(O)c5ccc(c(Cl)c5)O4)c4ccc(O)c(c4)-c4c(O)cc(O)cc4C(C(=O)O)NC3=O)OC(CO)C(O)C2O)CC(C)(NCc2ccc(-c3ccc(Cl)cc3)cc2)C1O (stereo not drawn)	zone score, E. faecalis CL 4877	2
CC1OC(OC2C(Oc3c4cc5cc3Oc3ccc(cc3Cl)[C@@H](O)[C@@H](NC(=O)CS(C)(=O)=O)C(=O)N[C@@H](CC(N)=O)C(=O)N[C@H]5C(=O)NC3C(=O)N[C@H](C(=O)N[C@@H](C(=O)O)c5cc(O)cc(O)c5-c5cc3ccc5O)[C@H](O)c3ccc(c(Cl)c3)O4)OC(CO)C(O)C2O)CC(C)(NCc2ccc(-c3ccc(Cl)cc3)cc2)C1O (stereo partly drawn)	zone score, E. faecalis CL 4877	2

* * *

# Tested on: E. faecalis (CL 4877)
# Assay details: Zone of inhibition screen, 96 well agar array format
# Type: cell-based
# Set-up: scale not given here
# Condition summary: zone of inhibition relative to 1 mg/ml stock solution of p-chlorobiphenylvancomycin

Compound	zone score, E. faecalis CL 4877
CC1OC(OC2C(Oc3c4cc5cc3Oc3ccc(cc3Cl)C(O)C3NC(=O)C(NC(=O)C5NC(=O)C(CC(N)=O)NC(=O)C(NC(=O)C(Cc5c[nH]cn5)NC(N)=O)C(O)c5ccc(c(Cl)c5)O4)c4ccc(O)c(c4)-c4c(O)cc(O)cc4C(C(=O)O)NC3=O)OC(CO)C(O)C2O)CC(C)(NCc2ccc(-c3ccc(Cl)cc3)cc2)C1O (stereo not drawn)	2
CC1OC(OC2C(Oc3c4cc5cc3Oc3ccc(cc3Cl)C(O)C3NC(=O)C(NC(=O)C5NC(=O)C(CC(N)=O)NC(=O)C(NC(=O)CN5CCN(CCN)CC5)C(O)c5ccc(c(Cl)c5)O4)c4ccc(O)c(c4)-c4c(O)cc(O)cc4C(C(=O)O)NC3=O)OC(CO)C(O)C2O)CC(C)(NCc2ccc(-c3ccc(Cl)cc3)cc2)C1O (stereo not drawn)	2
COc1cc(OC)c(CNC(=O)CCC(N)C(=O)NC2C(=O)NC(CC(N)=O)C(=O)NC3C(=O)NC4C(=O)NC(C(=O)NC(C(=O)O)c5cc(O)cc(O)c5-c5cc4ccc5O)C(O)c4ccc(c(Cl)c4)Oc4cc3cc(c4OC3OC(CO)C(O)C(O)C3OC3CC(C)(NCc4ccc(-c5ccc(Cl)cc5)cc4)C(O)C(C)O3)Oc3ccc(cc3Cl)C2O)c(OC)c1 (stereo not drawn)	2

* * *

As shown below, each of these compounds has a reported zone score, S. epidermidis ATCC 12228 value.
# System: S. epidermidis (ATCC 12228)
# Assay details: Zone of inhibition screen, 96 well agar array format
# Type: cell-based
# Parameters: scale not given here
# Condition summary: zone of inhibition relative to 1 mg/ml p-chlorobiphenylvancomycin

Compound	Tested on	zone score, S. epidermidis ATCC 12228
CC1OC(OC2C(Oc3c4cc5cc3Oc3ccc(cc3Cl)C(O)C3NC(=O)C(NC(=O)C5NC(=O)C(CC(N)=O)NC(=O)C(NC(=O)Cc5cccs5)C(O)c5ccc(c(Cl)c5)O4)c4ccc(O)c(c4)-c4c(O)cc(O)cc4C(C(=O)O)NC3=O)OC(CO)C(O)C2O)CC(C)(NCc2ccc(-c3ccc(Cl)cc3)cc2)C1O (stereo not drawn) [Compound 318]	S. epidermidis (ATCC 12228)	2
CC1OC(OC2C(Oc3c4cc5cc3Oc3ccc(cc3Cl)C(O)C3NC(=O)C(NC(=O)C5NC(=O)C(CC(N)=O)NC(=O)C(NC(=O)c5cc6ccccc6[nH]5)C(O)c5ccc(c(Cl)c5)O4)c4ccc(O)c(c4)-c4c(O)cc(O)cc4C(C(=O)O)NC3=O)OC(CO)C(O)C2O)CC(C)(NCc2ccc(-c3ccc(Cl)cc3)cc2)C1O (stereo not drawn) [Compound 291]	S. epidermidis (ATCC 12228)	2
CC1OC(OC2C(Oc3c4cc5cc3Oc3ccc(cc3Cl)C(O)C3NC(=O)C(NC(=O)C5NC(=O)C(CC(N)=O)NC(=O)C(NC(=O)CNC(=O)CNC(=O)CCNC(=O)OCc5ccccc5)C(O)c5ccc(c(Cl)c5)O4)c4ccc(O)c(c4)-c4c(O)cc(O)cc4C(C(=O)O)NC3=O)OC(CO)C(O)C2O)CC(C)(NCc2ccc(-c3ccc(Cl)cc3)cc2)C1O (stereo not drawn) [Compound 210]	S. epidermidis (ATCC 12228)	2
CC1OC(OC2C(Oc3c4cc5cc3Oc3ccc(cc3Cl)C(O)C3NC(=O)C(NC(=O)C5NC(=O)C(CC(N)=O)NC(=O)C(NC(=O)c5cccn5C)C(O)c5ccc(c(Cl)c5)O4)c4ccc(O)c(c4)-c4c(O)cc(O)cc4C(C(=O)O)NC3=O)OC(CO)C(O)C2O)CC(C)(NCc2ccc(-c3ccc(Cl)cc3)cc2)C1O (stereo not drawn) [Compound 229]	S. epidermidis (ATCC 12228)	2
CC1OC(OC2C(Oc3c4cc5cc3Oc3ccc(cc3Cl)C(O)C3NC(=O)C(NC(=O)C5NC(=O)C(CC(N)=O)NC(=O)C(NC(=O)c5ccc(F)cc5)C(O)c5ccc(c(Cl)c5)O4)c4ccc(O)c(c4)-c4c(O)cc(O)cc4C(C(=O)O)NC3=O)OC(CO)C(O)C2O)CC(C)(NCc2ccc(-c3ccc(Cl)cc3)cc2)C1O (stereo not drawn) [Compound 270]	S. epidermidis (ATCC 12228)	2
CC1OC(OC2C(Oc3c4cc5cc3Oc3ccc(cc3Cl)C(O)C3NC(=O)C(NC(=O)C5NC(=O)C(CC(N)=O)NC(=O)C(NC(=O)C(N)=O)C(O)c5ccc(c(Cl)c5)O4)c4ccc(O)c(c4)-c4c(O)cc(O)cc4C(C(=O)O)NC3=O)OC(CO)C(O)C2O)CC(C)(NCc2ccc(-c3ccc(Cl)cc3)cc2)C1O (stereo not drawn) [Compound 327]	S. epidermidis (ATCC 12228)	2
CNC(=O)C=CC(=O)NC1C(=O)NC(CC(N)=O)C(=O)NC2C(=O)NC3C(=O)NC(C(=O)NC(C(=O)O)c4cc(O)cc(O)c4-c4cc3ccc4O)C(O)c3ccc(c(Cl)c3)Oc3cc2cc(c3OC2OC(CO)C(O)C(O)C2OC2CC(C)(NCc3ccc(-c4ccc(Cl)cc4)cc3)C(O)C(C)O2)Oc2ccc(cc2Cl)C1O (stereo not drawn) [Compound 309]	S. epidermidis (ATCC 12228)	2
CC1OC(OC2C(Oc3c4cc5cc3Oc3ccc(cc3Cl)C(O)C3NC(=O)C(NC(=O)C5NC(=O)C(CC(N)=O)NC(=O)C(NC(=O)c5ccncc5)C(O)c5ccc(c(Cl)c5)O4)c4ccc(O)c(c4)-c4c(O)cc(O)cc4C(C(=O)O)NC3=O)OC(CO)C(O)C2O)CC(C)(NCc2ccc(-c3ccc(Cl)cc3)cc2)C1O (stereo not drawn) [Compound 292]	S. epidermidis (ATCC 12228)	2
CC1OC(OC2C(Oc3c4cc5cc3Oc3ccc(cc3Cl)C(O)C3NC(=O)C(NC(=O)C5NC(=O)C(CC(N)=O)NC(=O)C(NC(=O)CSCCS(=O)(=O)c5ccc(Cl)cc5)C(O)c5ccc(c(Cl)c5)O4)c4ccc(O)c(c4)-c4c(O)cc(O)cc4C(C(=O)O)NC3=O)OC(CO)C(O)C2O)CC(C)(NCc2ccc(-c3ccc(Cl)cc3)cc2)C1O (stereo not drawn) [Compound 300]	S. epidermidis (ATCC 12228)	2
CC1OC(OC2C(Oc3c4cc5cc3Oc3ccc(cc3Cl)C(O)C3NC(=O)C(NC(=O)C5NC(=O)C(CC(N)=O)NC(=O)C(NC(=O)Cn5cnnn5)C(O)c5ccc(c(Cl)c5)O4)c4ccc(O)c(c4)-c4c(O)cc(O)cc4C(C(=O)O)NC3=O)OC(CO)C(O)C2O)CC(C)(NCc2ccc(-c3ccc(Cl)cc3)cc2)C1O (stereo not drawn) [Compound 228]	S. epidermidis (ATCC 12228)	2
Cc1oncc1C(=O)NC1C(=O)NC(CC(N)=O)C(=O)NC2C(=O)NC3C(=O)NC(C(=O)NC(C(=O)O)c4cc(O)cc(O)c4-c4cc3ccc4O)C(O)c3ccc(c(Cl)c3)Oc3cc2cc(c3OC2OC(CO)C(O)C(O)C2OC2CC(C)(NCc3ccc(-c4ccc(Cl)cc4)cc3)C(O)C(C)O2)Oc2ccc(cc2Cl)C1O (stereo not drawn) [Compound 275]	S. epidermidis (ATCC 12228)	2
CCOCCC(=O)N[C@H]1C(=O)N[C@@H](CC(N)=O)C(=O)N[C@H]2C(=O)N[C@H]3C(=O)N[C@H](C(=O)N[C@@H](C(=O)O)c4cc(O)cc(O)c4-c4cc3ccc4O)[C@H](O)c3ccc(c(Cl)c3)Oc3cc2cc(c3O[C@@H]2O[C@H](CO)[C@@H](O)[C@H](O)[C@H]2O[C@@H]2C[C@@](C)(NCc3ccc(-c4ccc(Cl)cc4)cc3)[C@@H](O)[C@@H](C)O2)Oc2ccc(cc2Cl)[C@H]1O [Compound 258]	S. epidermidis (ATCC 12228)	2
